assay: Thermodynamic aqueous solubility; conditions: water (unadjusted aqueous), 25 °C, water, thermodynamic from solid
PROPERTY_NAME: solubility at 24 h (µg/mL)
Write the answer as a number in µg/mL, unit excluded.

Exercise: Tell us which solubility at 24 h value is on record for CC1(C)OC(c2ccncc2)=C(c2ccc(OCc3cn4ncccc4n3)cc2)C1=O [Free Base]
Solution: 60

---

experiment: Thermodynamic aqueous solubility; conditions: deionized water, 25 °C, water, thermodynamic from solid, Thermodynamic solubility, DI water, 24 hours
PROPERTY_NAME: solubility thermodynamic at 24 h

Exercise: Answer with the recorded solubility thermodynamic at 24 h of CC1(C)OC(c2ccncc2)=C(c2ccc(OCc3cn4ncccc4n3)cc2)C1=O [Form 2] only.
Solution: 40 µg/mL

---

assay: Thermodynamic aqueous solubility; conditions: deionized water, 25 °C, water, thermodynamic from solid, thermodynamic aqueous solubility; at pH 7.67 (Form 1), pH 7.23 (Form 2)
PROPERTY_NAME: solubility thermodynamic at 24 h

Exercise: For the compound CC1(C)OC(c2ccncc2)=C(c2ccc(OCc3cn4ncccc4n3)cc2)C1=O [Form 1] , report solubility thermodynamic at 24 h.
Solution: ~60 µg/mL

---

test: Thermodynamic aqueous solubility; conditions: pH 1.2 buffer, 25 °C, pH 1.2, simulated gastric fluid, thermodynamic from solid, Thermodynamic solubility, 24 hours
PROPERTY_NAME: solubility thermodynamic at 24 h (mg/mL)
Reply with just the number (in mg/mL).

Exercise: Dear colleague, please send me the reported solubility thermodynamic at 24 h for CC1(C)OC(c2ccncc2)=C(c2ccc(OCc3cn4ncccc4n3)cc2)C1=O [Form 2] when you can.
Solution: 37.8

---

assay: Log P determination (potentiometric titration); format: physicochemical; conditions: octanol/ionic-strength adjusted (ISA) water
PROPERTY_NAME: logP
Write the value as a bare number.

Exercise: Tell us which logP value is on record for CC1(C)OC(c2ccncc2)=C(c2ccc(OCc3cn4ncccc4n3)cc2)C1=O [Free Base]
Solution: 3

---

assay: Thermodynamic aqueous solubility; settings: aqueous buffer, 25 °C, pH 7.4, aqueous buffer, thermodynamic from solid
PROPERTY_NAME: solubility at 24 h (µg/mL)
Give your result in µg/mL as a bare value.

Exercise: Tell me its solubility at 24 h given CC1(C)OC(c2ccncc2)=C(c2ccc(OCc3cn4ncccc4n3)cc2)C1=O [Free Base] as the entry.
Solution: 50

---

test: Thermodynamic aqueous solubility; details: pH 4.5 buffer, 25 °C, pH 4.5, aqueous buffer, thermodynamic from solid, Thermodynamic solubility, 24 hours
PROPERTY_NAME: solubility thermodynamic at 24 h (mg/mL)
Output spec: scalar in mg/mL, unitless text.

Exercise: Give a short answer stating reported solubility thermodynamic at 24 h for CC1(C)OC(c2ccncc2)=C(c2ccc(OCc3cn4ncccc4n3)cc2)C1=O [Form 2] .
Solution: 0.05

---

experiment: Thermodynamic aqueous solubility; conditions: aqueous buffer, 25 °C, pH 4.5, aqueous buffer, thermodynamic from solid
PROPERTY_NAME: solubility at 24 h
# do not omit the unit; it follows the number

Exercise: Provide one value: measured solubility at 24 h of CC1(C)OC(c2ccncc2)=C(c2ccc(OCc3cn4ncccc4n3)cc2)C1=O [Free Base]
Solution: 90 µg/mL

---

test: pKa determination (Sirius GlpKa); type: physicochemical; settings: 25° C.; read-out: pKa (second of two basic centers)
PROPERTY_NAME: pKa
Could you respond with only the numeric value?

Exercise: Read the entry CC1(C)OC(c2ccncc2)=C(c2ccc(OCc3cn4ncccc4n3)cc2)C1=O [Free Base] and write its reported pKa.
Solution: 2.9
